src = ChEMBL document CHEMBL4052681

studyTarget: UniProt Q9P2J5
experimentDescription: Inhibition of LRS canonical enzyme activity in HEK293 cells assessed as effect on enzyme-mediated aminoleucylation
Assay type: cell-based
Sequence (Q9P2J5 whole entry): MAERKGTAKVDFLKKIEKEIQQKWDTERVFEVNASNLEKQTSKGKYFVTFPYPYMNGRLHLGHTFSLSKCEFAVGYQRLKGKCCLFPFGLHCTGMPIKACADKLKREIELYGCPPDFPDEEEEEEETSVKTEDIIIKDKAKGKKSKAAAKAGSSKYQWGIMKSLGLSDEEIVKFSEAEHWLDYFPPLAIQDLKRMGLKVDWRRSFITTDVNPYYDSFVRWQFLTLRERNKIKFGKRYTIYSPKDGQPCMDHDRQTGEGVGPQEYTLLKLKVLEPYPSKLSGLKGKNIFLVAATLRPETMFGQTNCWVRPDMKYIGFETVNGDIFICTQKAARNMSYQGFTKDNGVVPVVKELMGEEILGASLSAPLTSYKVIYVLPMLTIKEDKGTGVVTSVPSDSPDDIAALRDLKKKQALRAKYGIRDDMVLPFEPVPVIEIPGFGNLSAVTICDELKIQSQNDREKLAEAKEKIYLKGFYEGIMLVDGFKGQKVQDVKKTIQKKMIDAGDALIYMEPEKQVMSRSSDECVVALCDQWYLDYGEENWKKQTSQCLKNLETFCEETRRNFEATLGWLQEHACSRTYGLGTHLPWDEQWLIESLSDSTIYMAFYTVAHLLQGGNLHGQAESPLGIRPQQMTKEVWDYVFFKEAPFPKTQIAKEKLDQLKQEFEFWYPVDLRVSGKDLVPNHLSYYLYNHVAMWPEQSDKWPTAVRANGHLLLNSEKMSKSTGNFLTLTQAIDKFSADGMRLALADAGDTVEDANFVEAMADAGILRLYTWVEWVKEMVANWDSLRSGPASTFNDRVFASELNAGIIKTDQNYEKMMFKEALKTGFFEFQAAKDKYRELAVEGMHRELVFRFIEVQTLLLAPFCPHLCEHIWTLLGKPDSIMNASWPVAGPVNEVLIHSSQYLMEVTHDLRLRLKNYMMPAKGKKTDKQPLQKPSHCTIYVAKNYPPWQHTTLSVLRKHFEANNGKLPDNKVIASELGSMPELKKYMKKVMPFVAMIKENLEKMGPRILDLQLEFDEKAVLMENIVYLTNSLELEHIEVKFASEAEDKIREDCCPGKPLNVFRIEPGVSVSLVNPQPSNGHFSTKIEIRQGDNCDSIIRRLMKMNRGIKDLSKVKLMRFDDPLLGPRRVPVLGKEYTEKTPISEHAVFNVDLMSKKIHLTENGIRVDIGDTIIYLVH
quantityName: IC50

Fill blank: measured IC50 of the molecule `COc1ccc(CNS(=O)(=O)c2ccc(N3C(=O)N[C@@H](CC(C)C)C3=O)cc2)cc1OC` is ____.
> 800 µM

As a next step, examine the molecule that follows.
Fill blank: measured IC50 of the molecule `COc1ccc(CNS(=O)(=O)c2ccc(NC(=O)[C@@H](N)CC(C)C)cc2)cc1OC` is ____.
> 800 µM

* * *

studyTarget: Leucine--tRNA ligase, cytoplasmic (Homo sapiens)
experimentDescription: Inhibition of LRS-dependent mTORC1 activation in HEK293 cells assessed as reduction in leucine-induced mTORC1-mediated S6 Kinase phosphorylation pretreated before leucine stimulation measured after 10 mins by immunoblot analysis
Format: cell-based
quantityName: IC50 (µM)

I: COc1ccc(CNS(=O)(=O)c2ccc(N3C(=O)N[C@@H](CC(C)C)C3=O)cc2)cc1OC
II: COc1ccc(CNS(=O)(=O)c2ccc(NC(=O)[C@@H](N)CC(C)C)cc2)cc1OC
Name the one with the greater IC50 value, either I or II as given. Use the label to indicate which entry you chose.
II

* * *

studyTarget: Leucine--tRNA ligase, cytoplasmic (Homo sapiens)
experimentDescription: Inhibition of LRS-dependent mTORC1 activation in HEK293 cells assessed as reduction in leucine-induced mTORC1-mediated S6 Kinase phosphorylation at 200 uM pretreated before leucine stimulation measured after 10 mins by immunoblot analysis
Assay type: cell-based
Sequence (Q9P2J5 whole entry, looked up): as the sequence (Q9P2J5 whole entry) above
Calls of active or inactive are those of the source. The calls are words filed in the database; no cut-off is given here.
quantityName: inhibition of S6K phosphorylation (qualitative)

Fill blank: measured inhibition of S6K phosphorylation (qualitative) of the compound `COc1ccc(CNS(=O)(=O)c2ccc(NC(=O)[C@@H](O)[C@H](O)C(C)C)cc2)cc1OC` is ____.
Active

Fill blank: measured inhibition of S6K phosphorylation (qualitative) of the compound `COc1ccc(CNS(=O)(=O)c2ccc(NC(=O)[C@@H](N)CC(C)C)cc2)cc1OC` is ____.
Active

Fill blank: measured inhibition of S6K phosphorylation (qualitative) of the compound `COc1ccc(CNS(=O)(=O)c2ccc(NC(=O)[C@@H](O)CC(C)C)cc2)cc1OC` is ____.
Active

Fill blank: measured inhibition of S6K phosphorylation (qualitative) of the compound `CC(C)C[C@H](O)C(=O)NS(=O)(=O)OC[C@H]1O[C@@H](n2cnc3c(N)nc(I)nc32)[C@H](O)[C@@H]1O` is ____.
Active
